Can you tell me optical density for the items I'm about to list?
# assay.system: T1, biotinylated goat anti-human kappa light chain
# T1 construct: positive control of the ELISA
# run.description: ELISA, positive control; also: test concentration or dose not given here
One number for each entry, in OD.

Some binders with known optical density results, for comparison:
| binder | optical density, OD |
| --- | --- |
| 367_D08 (antibody, V domains shown, Group III) VH: EVQLLESGGGLVQPGGSLRLSCAASGFTFSDYSMNWVRQAPGKGLEWVAGINYNGGYTSYADSVKGRFTISRDNSKNTLYLQMNSLRAEDTAVYYCARGANWHDTHLDYWGQGTLVTVSS VL: DIQMTQSPSSLSASVGDRVTITCRASQSILSYLNWYQQKPGKAPKLVIYAATSRHSGVPSRFSGSGSGTDFTLTISSLQPEDFATYYCQQSDDLPLTFGGGTKVEIK | 3.5 |
| 371_B12 (antibody, V domains shown, Group III) VH: EVQLLESGGGLVQPGGSLRLSCAASGFTFSDYSMNWVRQAPGKGLEWVAGINYNSGYTSYADSVKGRFTISRDNSKNTLYLQMNSLRAEDTAVYYCARGANWHDTALDYWGQGTLVTVSS VL: DIQMTQSPSSLSASVGDRVTITCRASQSIVTYLNWYQQKPGKAPKLVIYAATSRHSGVPSRFSGSGSGTDFTLTISSLQPEDFATYYCQQSYNNPLTFGGGTKVEIK | 3.48 |

Now for another entry.
input: Entry 375_F08 (antibody, V domains shown, Group III) VH: EVQLLESGGGLVQPGGSLRLSCAASGFTFSSYGMNWVRQAPGKGLEWVSSINYNSGYKSYADSVKGRFTISRDNSKNTLYLQMNSLRAEDTAVYYCARGANWHDTHLDYWGQGTLVTVSS VL: DIQMTQSPSSLSASVGDRVTITCRASQSILSYLNWYQQKPGKAPKLLIYAATSRHSGVPSRFSGSGSGTDFTLTISSLQPEDFATYYCQQSYDNPLTFGGGTKVEIK has what optical density?
output: 3.31
